ASSAY_DETAILS: Oral bioavailability in mouse
Assay type: ADME, organism-based
RUN_PARAMETERS: in vivo
MEASURED_METRIC: bioavailability (%)
The answer is to be given in %; state only the numeric part.

Field bioavailability (entry NCc1ccc2c(c1)nc(CN1C(=O)C3(CC3)c3ccc(F)cc31)n2CCCC(F)(F)F [SISUNATOVIR] ) reads 46

====

ASSAY_DETAILS: Antiviral activity against RSV B infected in HeLa cells
Assay type: functional, cell-based
RUN_PARAMETERS: human respiratory syncytial virus
pEC50: −log10 of the molar value.
MEASURED_METRIC: pEC50

Entry CS(=O)(=O)CCCn1c(Cn2c(=O)n(CC(F)(F)F)c3ccncc32)cc2cc(Cl)ccc21 ; pEC50 = 7.70 to 9.70

====

Test system: Human orthopneumovirus
ASSAY_DETAILS: Antiviral activity against RSV type A
Type: functional, organism-based
RUN_PARAMETERS: human respiratory syncytial virus
pEC50: −log10 of the molar value.
MEASURED_METRIC: pEC50

Nc1ccn([C@@H]2O[C@@](CO)(CCl)[C@@H](O)[C@H]2F)c(=O)n1 [ALS-8112] yielded pEC50 of 6.35 to 7.05

====

ASSAY_DETAILS: Antiviral activity against RSV B-WST infected in Hep2 cells preincubated for 1 hr followed by RSV infection and measured after 3 days by ELISA method
Format: functional, cell-based
RUN_PARAMETERS: human respiratory syncytial virus, HEp-2
MEASURED_METRIC: EC50

compound O=C(NC1CC1)c1cc2c(s1)-c1ccccc1N(C(=O)c1ccc(NC(=O)c3ccccc3-c3ccccc3)cc1)CC2 , EC50 observed: > 20 µM

Sure, the documented EC50 for O=C(NC1CC1)c1cc2c(s1)-c1ccccc1N(C(=O)c1ccc(NC(=O)c3cccnc3N3CCC4(CC3)COC4)cc1)CC2 is > 50 µM

====

ASSAY_DETAILS: Plasma clearance in Beagle dog at 2 mg/ml, iv or 1.2 mg/ml, po measured up to 24 hrs by LC-MS/MS analysis
Assay type: ADME, organism-based, Canis lupus familiaris
MEASURED_METRIC: clearance

Field clearance (entry CS(=O)(=O)CCCn1c(Cn2c(=O)n(CC(F)(F)F)c3ccncc32)cc2cc(Cl)ccc21 ) reads 9 mL/min/kg

====

ASSAY_DETAILS: Oral bioavailability in BALB/c mouse
Format: ADME, organism-based
RUN_PARAMETERS: in vivo
MEASURED_METRIC: bioavailability (%)
The response must be a number in % with no trailing unit.

GET /value?item= CC(C)OC(=O)N1CC2(C1)C(=O)N(Cc1nc3cc(Br)ccc3n1CCCO)c1ccccc12 &field=bioavailability returns 72

====

System: Respiratory syncytial virus
ASSAY_DETAILS: Antiviral activity against Respiratory syncytial virus
Type: functional, organism-based
RUN_PARAMETERS: human respiratory syncytial virus
Listed below: pEC50 values for each entry.
Scale: pEC50 equals -log10([C]), with [C] in mol/L.

>>> print(df.to_string())
                          chemical_smiles                  system_name  measured_metric  observed_value
0  c1coc(-c2nn3c(Cn4cnc5ccccc54)nnc3s2)c1  Respiratory syncytial virus            pEC50            6.18

Consider CC(C)CCn1c(CN2C(=O)C3(CC3)c3ccccc32)nc2cc(CN)ccc21 . Its measured pEC50 is 7.51
